Values were extracted from patent US7709475B2.

pIC50: −log10 of the molar value.
Measured pIC50 on cyclin H-Cdk7 (Homo sapiens, UniProt P50613) follows.
Sequence (P50613 whole entry): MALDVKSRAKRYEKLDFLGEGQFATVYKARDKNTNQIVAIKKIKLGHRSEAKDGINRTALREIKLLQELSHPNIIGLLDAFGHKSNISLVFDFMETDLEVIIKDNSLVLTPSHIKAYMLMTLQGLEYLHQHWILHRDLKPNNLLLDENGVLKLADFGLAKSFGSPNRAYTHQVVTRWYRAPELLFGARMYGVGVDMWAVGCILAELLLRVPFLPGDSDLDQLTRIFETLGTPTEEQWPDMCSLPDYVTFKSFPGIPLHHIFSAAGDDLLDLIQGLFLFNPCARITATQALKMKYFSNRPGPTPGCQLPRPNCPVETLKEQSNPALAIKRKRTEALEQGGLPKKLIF
Sequence (P51946 whole entry partner): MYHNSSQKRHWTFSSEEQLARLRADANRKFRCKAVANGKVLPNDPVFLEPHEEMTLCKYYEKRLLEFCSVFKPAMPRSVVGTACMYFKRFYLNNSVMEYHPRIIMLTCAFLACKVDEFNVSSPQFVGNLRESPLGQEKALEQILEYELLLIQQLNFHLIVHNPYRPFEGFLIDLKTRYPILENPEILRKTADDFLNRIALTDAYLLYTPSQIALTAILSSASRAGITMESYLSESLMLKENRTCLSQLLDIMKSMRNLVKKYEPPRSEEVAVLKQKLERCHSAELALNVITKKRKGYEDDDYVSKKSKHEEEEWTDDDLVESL
MEASURED ATTRIBUTE: pIC50

>>> endpoint_value("Cc1cc(-c2cnc(Nc3cnc(CN(C)CCO)cn3)s2)nc(Sc2ccccc2Cl)n1 [Example 114]")
6.11
>>> endpoint_value("CCNCc1cnc(Nc2ncc(-c3cc(C)nc(NC4CCCCC4)n3)s2)cn1 [Example 52]")
6.68
>>> endpoint_value("Cc1cc(-c2cnc(Nc3cnc(CN4CCC(N(C)C)C4)cn3)s2)nc(SC2CCCCC2)n1 (centres unmarked) [Example 94]")
7.04
>>> endpoint_value("CCNCc1cnc(Nc2ncc(-c3cc(C)nc(Sc4ccccc4Cl)n3)s2)cn1 [Example 105]")
6.43
>>> endpoint_value("Cc1cc(-c2cnc(Nc3cnc(CN4CCN(C)CC4)cn3)s2)nc(OC2CCCCC2)n1 [Example 1]")
6.28
>>> endpoint_value("CNCc1cnc(Nc2ncc(-c3cc(C)nc(Sc4ccccc4Cl)n3)s2)cn1 [Example 107]")
6.08
>>> endpoint_value("Cc1cc(-c2cnc(Nc3cnc(CN4CCCC4)cn3)s2)nc(SC2CCCCC2)n1 [Example 93]")
6.85
>>> endpoint_value("CC(=O)N1CCN(Cc2ccc(Nc3ncc(-c4cc(C)nc(OC5CCCCC5)n4)s3)nc2)CC1 [Example 125]")
6.43
